From: patent US11192899B2

Reported IC50 by item:
- systemTested: UniProt:P30542
- Sequence (P30542 whole entry): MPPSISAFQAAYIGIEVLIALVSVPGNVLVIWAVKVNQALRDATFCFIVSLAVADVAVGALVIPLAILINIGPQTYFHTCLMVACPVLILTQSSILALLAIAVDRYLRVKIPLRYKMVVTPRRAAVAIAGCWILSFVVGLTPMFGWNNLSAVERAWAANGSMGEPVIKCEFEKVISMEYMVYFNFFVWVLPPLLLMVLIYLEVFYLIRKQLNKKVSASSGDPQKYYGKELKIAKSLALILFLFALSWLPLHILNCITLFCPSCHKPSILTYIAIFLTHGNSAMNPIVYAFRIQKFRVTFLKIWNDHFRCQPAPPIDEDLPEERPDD
- experimentalDetails: cAMP HTRF functional assay, recombinant CHO cells expressing human A1 receptor, forskolin and agonist CPA

Use the examples below as a reference point.
smilesRepr | systemTested | experimentalValue
COc1ccc(C2=CCOC2)c2ncc(NC(=O)C3CC3)nc12 | UniProt:P30542 | < 1 µM
COc1ccc(-c2ccccc2)c2ncc(NC(=O)c3cnc[nH]3)nc12 | UniProt:P30542 | > 1 µM
COc1ccc(C2=CCOCC2)c2ncc(NC(=O)c3csc(N)n3)nc12 | UniProt:P30542 | > 1 µM
COc1ccc(C2CCOCC2)c2ncc(NC(=O)N3CCC(C)(O)CC3)nc12 | UniProt:P30542 | > 1 µM

Below: the item to evaluate.
Entry COc1ccc(-c2cccc(F)c2F)c2ncc(NC(=O)C3CC3)nc12 , IC50 reported as < 1 µM

----------
- systemTested: A2B receptors (Homo sapiens)
- Sequence (P29275 1-332): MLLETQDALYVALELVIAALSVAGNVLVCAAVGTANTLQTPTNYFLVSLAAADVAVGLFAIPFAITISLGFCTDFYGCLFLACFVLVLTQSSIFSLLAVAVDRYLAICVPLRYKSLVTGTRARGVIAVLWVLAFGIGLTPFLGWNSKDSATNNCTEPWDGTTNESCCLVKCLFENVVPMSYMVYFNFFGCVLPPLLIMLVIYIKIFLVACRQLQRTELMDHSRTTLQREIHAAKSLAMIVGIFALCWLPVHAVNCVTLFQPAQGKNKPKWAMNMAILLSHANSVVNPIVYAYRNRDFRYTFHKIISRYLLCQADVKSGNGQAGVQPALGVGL
- experimentalDetails: cAMP HTRF functional assay, recombinant HEK293 cells expressing human A2B receptor, agonist NECA
- Assay type: cell-based
- Set-up: expressed in transfected cells; host or cells: HEK293
pIC50: −log10 of the molar value.
Reported pIC50 by item:

Use the examples below as a reference point.
compound | experimentalValue
COc1ccc(C2=CCOCC2)c2ncc(NC(=O)c3cnsc3)nc12 [compound 136] | > 7.00
COCCOc1cccc(-c2ccc(OC)c3nc(NC(=O)N4CCC(C)(O)CC4)cnc23)c1 [compound 117] | < 6.00
COCCOCCn1cc(-c2ccc(OC)c3nc(NC(=O)N4CCC(C)(O)CC4)cnc23)cn1 [compound 119] | < 6.00
C#CCC1(O)CCN(C(=O)Nc2cnc3c(C4CCOCC4)ccc(OC)c3n2)CC1 [compound 10] | < 6.00

Entry COc1ccc(C2=CCOCC2)c2ncc(NC(=O)c3ncc(C4CCOC4)s3)nc12 (centres unmarked) [compound 140] , pIC50 reported as > 7.00

Entry COCCOc1cccc(-c2ccc(OC)c3nc(NC(=O)C4CC4)cnc23)c1 [compound 147] , pIC50 reported as > 7.00

Entry CCOC(=O)c1nnc(NC(=O)Nc2cnc3c(C4=CCOCC4)ccc(OC)c3n2)s1 [compound 143] , pIC50 reported as < 6.00

Entry COc1ccc(-c2ccccc2)c2ncc(NC(=O)N3CCC(C)(O)CC3)nc12 [compound 2] , pIC50 reported as < 6.00

----------
- systemTested: human A2A receptor (Homo sapiens, UniProt P29274)
- Construct: expressed in transfected cells; host or cells: HEK293
- Sequence (P29274 whole entry): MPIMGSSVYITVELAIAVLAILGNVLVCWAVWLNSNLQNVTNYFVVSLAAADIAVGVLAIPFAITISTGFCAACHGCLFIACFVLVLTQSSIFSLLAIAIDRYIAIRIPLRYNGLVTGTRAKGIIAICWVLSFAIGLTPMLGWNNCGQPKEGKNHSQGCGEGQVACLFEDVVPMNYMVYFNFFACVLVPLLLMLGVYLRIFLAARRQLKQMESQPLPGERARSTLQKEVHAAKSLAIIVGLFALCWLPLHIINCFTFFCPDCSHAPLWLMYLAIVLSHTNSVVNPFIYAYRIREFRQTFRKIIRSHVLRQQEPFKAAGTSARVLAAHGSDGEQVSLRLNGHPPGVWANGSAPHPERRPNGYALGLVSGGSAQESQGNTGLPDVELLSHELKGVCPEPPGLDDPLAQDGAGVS
- experimentalDetails: cAMP HTRF functional assay, recombinant HEK293 cells expressing human A2A receptor, agonist NECA
- Assay type: cell-based
pIC50: −log10 of the molar value.
quantityMeasured: pIC50

Use the examples below as a reference point.
compound | pIC50
COc1ccc(C2=CCOCC2)c2ncc(NC(=O)c3cnc(C)o3)nc12 [compound 132] | > 8.00
COCCOc1cccc(-c2ccc(OC)c3nc(NC(=O)c4nnc(C)s4)cnc23)c1 [compound 152] | > 7.00
COCCOCc1cccc(-c2ccc(OC)c3nc(NC(=O)N4CCC(C)(O)CC4)cnc23)c1 [compound 118] | > 7.00
COc1ncc(-c2ccccc2)c2ncc(NC(=O)N3CCC(C)(O)CC3)nc12 [compound 27] | > 7.00
COc1ccc(-c2cnn(Cc3ccccn3)c2)c2ncc(NC(=O)N3CCC(C)(O)CC3)nc12 [compound 114] | > 7.00
COc1ccc(C2=CCOC2)c2ncc(NC(=O)C3CC3)nc12 [compound 141] | > 7.00
COc1ccc(C2CCOCC2)c2ncc(NC(=O)N3CC4(C3)CS(=O)(=O)C4)nc12 [compound 18] | > 7.00

Entry COc1ccc(C2=CCOCC2)c2ncc(NC(=O)c3cnsc3)nc12 [compound 136] , pIC50 reported as > 8.00
